TGT: Nuclear receptor subfamily 0 group B member 1 (Homo sapiens)
TEST PROTOCOL: DAX1 (NR0B1) inhibitors, primary screen, cell-based, HEK293, Gal4-DAX1, luciferase luminescence (AID 504766);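 note: 0% = DAX1-transfected cells with DMSO and 100% = empty-vector control cells with DMSO; inhibition shows as a rise in luminescence from relieved DAX1 repression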
EXPERIMENTAL CONDITIONS: HEK293 Gal4-DAX1 luciferase reporter, at 6.75 µM, stronger effect = higher value
The whole screen tested about 340,000 compounds, of which about 3,400 (1%) were called active. The entries come from a sample that favours actives as a whole.
Recorded inhibition for the following molecules
Note: unit % is implicit; provide only the numeric part.

COc1ccc2c(CC(=O)OCC(=O)Nc3ccccc3[N+](=O)[O-])coc2c1 ... 0.79
COc1cc(/C=N/N2CCN(c3ccccc3)CC2)ccc1OC(C)=O ... -0.26
Cc1ccc(Cc2c(-c3ccc(C)cc3)nc3c4ccccc4ccn23)cc1 ... 0.53
COc1ccccc1N1CCN(/N=C\C(Br)=C\c2ccccc2)CC1 ... -0.74

Challenge: # inhibition lookup, item "COc1ccc(OC)c(/C=C/C(=O)OCC(=O)Nc2ccc3c(c2)OCCO3)c1"
Response given: 0.21

====

TGT: Nuclear receptor subfamily 0 group B member 1 (Homo sapiens) (UniProt P51843)
Sequence (P51843 207-470 limits assumed): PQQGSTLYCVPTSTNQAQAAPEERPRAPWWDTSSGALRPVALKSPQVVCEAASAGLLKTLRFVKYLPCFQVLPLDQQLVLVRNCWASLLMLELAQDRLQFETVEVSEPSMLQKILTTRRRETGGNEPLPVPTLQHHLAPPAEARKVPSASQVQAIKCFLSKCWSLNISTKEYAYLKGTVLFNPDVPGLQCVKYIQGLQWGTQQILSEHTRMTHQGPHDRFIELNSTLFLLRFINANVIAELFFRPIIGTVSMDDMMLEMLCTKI
TEST PROTOCOL: DAX1 (NR0B1) inhibitors, primary screen, cell-based, HEK293, Gal4-DAX1, luciferase luminescence (AID 504766)
EXPERIMENTAL CONDITIONS: HEK293 Gal4-DAX1 luciferase reporter, at 6.75 µM, stronger effect = higher value
Screen size: about 340,000 compounds; about 3,400 (1%) were called active. Shown is part of a subset that was picked to be rich in actives.
Recorded inhibition for the following compounds
Note: unit % is implicit; provide only the numeric part.

Cc1ccc(C(=O)O/N=C(\N)c2ccccn2)cc1Cl ... -3.11

Challenge: # inhibition lookup, item "C=CCOc1ccccc1CNn1c(C)n[nH]c1=S"
Response given: 0.12

Challenge: # inhibition lookup, item "C[C@H]1CN([C@@H](C)CO)C(=O)CCCn2cc(nn2)CO[C@@H]1CN(C)S(=O)(=O)c1ccc(-c2ccccc2)cc1"
Response given: 0

Challenge: # inhibition lookup, item "CCn1c(SCC(=O)Nc2ccc3c(c2)OCCO3)nnc1-c1ccncc1"
Response given: 6.79

Challenge: # inhibition lookup, item "O=[N+]([O-])c1ccc(C=NN=Cc2ccc([N+](=O)[O-])cc2)cc1"
Response given: 0.89

Challenge: # inhibition lookup, item "O=[N+]([O-])c1cc(Cl)cc(/C=N/NC(=S)Nc2cc(S(=O)(=O)N3CCOCC3)ccc2Cl)c1O"
Response given: 4.75

Challenge: # inhibition lookup, item CC1CC(=NNC(=O)C2COc3ccccc3O2)CC(C)(C)C1 (stereo not drawn)
Response given: 0.05

====

Recorded inhibition for the following compounds
TGT: Nuclear receptor subfamily 0 group B member 1 (Homo sapiens)
TEST PROTOCOL: DAX1 (NR0B1) inhibitors, primary screen, cell-based, HEK293, Gal4-DAX1, luciferase luminescence (AID 504766);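 note: 0% = DAX1-transfected cells with DMSO and 100% = empty-vector control cells with DMSO; inhibition shows as a rise in luminescence from relieved DAX1 repression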
EXPERIMENTAL CONDITIONS: HEK293 Gal4-DAX1 luciferase reporter, at 6.75 µM, stronger effect = higher value
Among all 340,000 compounds or so, about 3,400 (1%) were called active. This is one part of a sample in which actives are shown more often than they occur.
Note: unit % is implicit; provide only the numeric part.

O=S(=O)(c1cccc(C(F)(F)F)c1)N1c2ccccc2-n2cccc2C1c1cccnc1 (stereo not given) ... 0.07
COC(=O)C[C@H]1C[C@@H]2c3cc(N(C)C)ccc3O[C@@H]2[C@H](CO)O1 ... 1.14
CC(C)(CNC(=O)c1cc(=O)[nH]c2ccccc12)N1CCOCC1 ... -0.11
COc1ccc(S(=O)(=O)N(C)C)cc1NC(=O)COC(=O)c1n[nH]c2ccccc12 ... -0.33
O=C(Nc1ncccc1O)c1ccc(C(=O)c2ccccc2)cc1 ... 10.6
COc1ccc(OC)c(NC(=O)C2CCCN2S(=O)(=O)c2ccc3c(c2)CC(C)N3C(C)=O)c1 (stereo not given) ... 1.18

Challenge: # inhibition lookup, item "O=S(=O)(c1ccc2c(c1)OCCO2)N1CCc2ccccc21"
Response given: 0.28

Challenge: # inhibition lookup, item "N#Cc1c(C(F)(F)F)cc(-c2ccc(Cl)cc2)nc1SCC(=O)O"
Response given: 4.58

Challenge: # inhibition lookup, item "C[C@H]1NS(=O)(=O)c2cc(Cl)ccc2O[C@@H]1c1ccccc1"
Response given: -0.34

Challenge: # inhibition lookup, item N#Cc1ccc(C2N=C(c3ccccc3)NO2)cc1 (stereo not given)
Response given: 4.58

Challenge: # inhibition lookup, item "CCOC(=O)C1CCN(C(=O)c2ccc3c(=O)n4nc(Nc5ccccc5CC)sc4nc3c2)CC1"
Response given: -2.28

====

TGT: Nuclear receptor subfamily 0 group B member 1 (Homo sapiens) (UniProt P51843)
TEST PROTOCOL: DAX1 (NR0B1) inhibitors, primary screen, cell-based, HEK293, Gal4-DAX1, luciferase luminescence (AID 504766);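 note: 0% = DAX1-transfected cells with DMSO and 100% = empty-vector control cells with DMSO; inhibition shows as a rise in luminescence from relieved DAX1 repression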
EXPERIMENTAL CONDITIONS: HEK293 Gal4-DAX1 luciferase reporter, at 6.75 µM, stronger effect = higher value
Among all 340,000 compounds or so, about 3,400 (1%) were called active. The full list was thinned out, with actives kept by preference.
Recorded inhibition for the following compounds

Cc1cc(N=Nc2ccc3ccccc3c2)ccc1O ... 4.42% (active)
COc1ccc(NC(=O)COC(=O)C2COc3ccccc3O2)cc1 (configuration not stated) ... 0.47% (inactive)
O=C(CCc1ccc(S(=O)(=O)N2CCOCC2)cc1)NN=C1CCCCCCC1 ... 0% (inactive)
O=C(NCC(F)(F)F)c1ccc(S(=O)(=O)NCCc2ccc3c(c2)OCCO3)cc1 ... 1.37% (inactive)
Cc1cc(C)n(-c2nc(O)cc(=O)[nH]2)n1 ... 4.76% (active)
CC(=O)c1ccc(Oc2cc(C)nc(-n3nc(C)cc3C)n2)cc1 ... 0.1% (inactive)

Challenge: # inhibition lookup, item "CCC(=O)NC(=Nc1nc2ccccc2s1)NC(=O)CC"
Response given: 6.2% (active)

Challenge: # inhibition lookup, item "CCCCN1C[C@H](c2ccc(Br)cc2)[C@@H](CC(=O)Nc2ccc(Br)cc2)C1=O"
Response given: -0.08% (inactive)

Challenge: # inhibition lookup, item COc1ccc(CN2C(=O)C(CC(=O)NC3CCCCC3)CC(C(=O)N3CCOCC3)=C2C)cc1 (configuration not stated)
Response given: 0.35% (inactive)

Challenge: # inhibition lookup, item "CCCCCCN1C[C@H](O)[C@@H](n2cc(C3CC3)nn2)C[C@@H]1c1ccc(Cl)cc1"
Response given: -0.34% (inactive)

Challenge: # inhibition lookup, item CC(=O)c1ccccc1NC(=O)COC(=O)C1COc2ccccc2O1 (configuration not stated)
Response given: 0.71% (inactive)

Challenge: # inhibition lookup, item "CC(C)CC(=O)N/C(N)=N/c1nc2ccccc2s1"
Response given: 0.77% (inactive)

Challenge: # inhibition lookup, item "O=C(COc1ccc(Br)cc1)OCC(=O)c1ccc[nH]1"
Response given: -1.15% (inactive)

====

Recorded inhibition for the following molecules
TGT: Nuclear receptor subfamily 0 group B member 1 (Homo sapiens) (UniProt P51843)
TEST PROTOCOL: DAX1 (NR0B1) inhibitors, primary screen, cell-based, HEK293, Gal4-DAX1, luciferase luminescence (AID 504766);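 note: 0% = DAX1-transfected cells with DMSO and 100% = empty-vector control cells with DMSO; inhibition shows as a rise in luminescence from relieved DAX1 repression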
EXPERIMENTAL CONDITIONS: HEK293 Gal4-DAX1 luciferase reporter, at 6.75 µM, stronger effect = higher value
Hit rate of the full screen: of about 340,000 compounds, about 3,400 (1%) were called active. The sample as a whole holds a higher share of actives than the screen did.
Note: unit % is implicit; provide only the numeric part.

Completed entries (count: 6):
C[C@H](CO)N1C[C@H](C)[C@@H](CN(C)S(=O)(=O)c2ccc(F)cc2)OCc2cnnn2CCCC1=O ... 0.91
COc1c(N2CCN(C(=S)Nc3ccccc3F)C(C)C2)c(F)cc2c(=O)c(C(=O)O)cn(C3CC3)c12 (stereo unspecified) ... 4.24
N#C/C=C1\Sc2ccccc2C(=O)N1CC(=O)N1CCN(S(=O)(=O)c2ccccc2)CC1 ... 4.84
CC1CN(C(=S)Nc2ccccc2F)CC(C)O1 (stereo unspecified) ... -0.08
Cc1cccc(C(=O)C(O)(c2ccccc2)C2CCCCC2=O)c1 (stereo unspecified) ... 0.38
C[C@H](CO)N1C[C@H](C)[C@@H](CN(C)C(=O)c2cccc(F)c2)Oc2cc(-c3cncnc3)ccc2S1(=O)=O ... 1.05

Challenge: # inhibition lookup, item "COC(=O)c1c(NC(=O)CN(c2ccc(C)c(C)c2)S(C)(=O)=O)sc2c1CCCC2"
Response given: 0.52

Challenge: # inhibition lookup, item "COc1ccc(Cn2c(=O)cc(C)[nH]c2=S)cc1"
Response given: 4.43

Challenge: # inhibition lookup, item CN(C)C(CNC(=O)c1ccc(OCc2cn3ccccc3n2)cc1)c1ccco1 (stereo unspecified)
Response given: 0.93

Challenge: # inhibition lookup, item "Cc1cccc(Nc2nc(-c3ccccc3)cs2)n1"
Response given: 7.24

Challenge: # inhibition lookup, item "C=CCSC(CC)(CC)C(N)=O"
Response given: 4.43
